Tested on: VDR homodimer (NR concentration 270 nM)
Assay: PBM binding z-score (relative to random genomic background probes); higher = stronger binding; sequences stand for … in GC…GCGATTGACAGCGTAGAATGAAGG
Experimental endpoint: PBM binding z-score

ACTCGTTGGTCAGCTGAGGTCACACACAATTCGG | 3.72

Look at each sequence and report its PBM binding z-score.
1. CCTTACGGGTCACTCCAGGTTATGGCATCGGAGT
2. TCGAGTAGGTTAGTCGGGGCGTTCAGCCAACATA
3. CCGACTGGGGCAAGCTTACCATAACGCACAGCCA
4. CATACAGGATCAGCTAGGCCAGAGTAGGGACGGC

[1.62, -0.484, -0.428, 0.0286]

---

System: THRa homodimer (NR concentration 90 nM)
Assay: PBM binding z-score (relative to random genomic background probes); higher = stronger binding; sequences stand for … in GC…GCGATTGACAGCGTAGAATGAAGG
Tag: Met if measured PBM binding z-score is not below 0.9, Not met if it is.

Example entries begin here.
CCGAGTAGGTTATGGGGCATTCTGGCAACGGTGA | Not met
TCATATAGGTAAACAGGTGAAAGTACGTAAGTTA | Not met

Check this sequence for PBM binding z-score at or above 0.9: TCATATAGGTAAAGTTGAAAGTCGAACGATATGA Not met

Check this sequence for PBM binding z-score at or above 0.9: TTACCACGGTGAAAGGTCGTTGATGCACGCCTTG Not met

Check this sequence for PBM binding z-score at or above 0.9: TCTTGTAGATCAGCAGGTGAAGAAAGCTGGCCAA Not met

Check this sequence for PBM binding z-score at or above 0.9: CAAACTAGGTCACCGGAAGCTCAAAGTCCGCATG Met

---

Tested on: RARg homodimer (NR concentration 270 nM)
Experiment: PBM binding z-score (relative to random genomic background probes); higher = stronger binding; sequences stand for … in GC…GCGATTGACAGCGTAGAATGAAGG
Field: PBM binding z-score. Provide a value for each of the sequences that follow.

ATCTCTAGGTAAAGATAGTTCATTGAATGCAAAT | 0.983
CCTACTGGGCCAAGTTCATTGATCAGTCAAAGCA | 1.09
TCTCGTTGGTCACGGAGGTCACACACGACGGGTA | 4.91
CGTCCAAGGTCGGAGAGGTCAGTGAATGCCGAGT | 4.66
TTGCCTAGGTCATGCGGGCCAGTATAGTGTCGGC | 4.33
TAACCTAGGTCATGGGCCAGTATACCACGCGAAC | 5.12
CCTTACGGGTCACGAGCTTATAGCACGACGAGCG | 5.35
CCAGCTAGGTCAATGGTCAGCTAAAGCAGCTCGC | 4.15

Look at each sequence and report its PBM binding z-score.
1. CCGACTGGGGCATAAGGTTACAATAAGCCAGCCC
2. ATCTCTAGGTAAGATTCAGTTCAGTGAAGAACGC
3. CTCGAAAGGTCGTGCTCAGGTGTGTATACCAAAC
4. CGTGCAAGGTCAATGCTAGGTCAGTGAAAGCATT
5. TCTAGTTGGTCAAAGGACACACACTCGAAATGCG
6. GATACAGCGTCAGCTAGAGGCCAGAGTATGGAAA
7. TCTTGTAGATCAACCGGAGGTTAAGAAAGATCGA

1. 1.08
2. 0.134
3. 3.62
4. 7.27
5. 2.29
6. 0.0489
7. 0.219
